Consider compounds characterized by their pIC50 with UniProt P00747.
Sequence (P00747 581-810 limits assumed, species assumed): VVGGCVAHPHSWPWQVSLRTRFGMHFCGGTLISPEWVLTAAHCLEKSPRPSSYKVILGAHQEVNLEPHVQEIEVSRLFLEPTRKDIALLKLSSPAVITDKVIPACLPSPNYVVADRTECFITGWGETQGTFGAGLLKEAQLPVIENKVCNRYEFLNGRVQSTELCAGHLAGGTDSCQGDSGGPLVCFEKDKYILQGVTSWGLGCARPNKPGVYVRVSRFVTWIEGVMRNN
Sequence (P00747 97-580 partner limits assumed, species assumed): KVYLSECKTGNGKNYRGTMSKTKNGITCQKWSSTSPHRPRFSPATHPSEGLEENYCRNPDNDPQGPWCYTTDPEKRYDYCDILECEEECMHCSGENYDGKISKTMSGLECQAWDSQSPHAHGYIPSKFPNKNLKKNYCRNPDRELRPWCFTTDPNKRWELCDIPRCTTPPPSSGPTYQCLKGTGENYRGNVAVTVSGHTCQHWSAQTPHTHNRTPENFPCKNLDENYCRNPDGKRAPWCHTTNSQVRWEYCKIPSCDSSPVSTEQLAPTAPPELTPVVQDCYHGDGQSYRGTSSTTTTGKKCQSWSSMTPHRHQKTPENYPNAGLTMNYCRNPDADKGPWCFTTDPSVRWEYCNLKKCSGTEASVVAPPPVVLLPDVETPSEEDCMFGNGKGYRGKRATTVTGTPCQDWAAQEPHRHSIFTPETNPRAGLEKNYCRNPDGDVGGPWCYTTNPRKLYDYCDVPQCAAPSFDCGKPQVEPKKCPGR
# pIC50 = -log10(concentration in molar units)

## Input Would you kindly share the measured pIC50 for N=C(N)c1ccc2cc(OC(=O)c3ccc(C=O)cc3)ccc2c1 [Compound 31] ?
## Output 6.40

## Input Would you kindly share the measured pIC50 for N=C(N)c1ccc2cc(OC(=O)c3ccc(Br)cc3)ccc2c1 [Compound 17] ?
## Output 5.70

## Input Would you kindly share the measured pIC50 for N=C(N)c1ccc2cc(OC(=O)C=Cc3cccc(C(F)(F)F)c3)ccc2c1 [Compound 66] ?
## Output 6.30

## Input Would you kindly share the measured pIC50 for N=C(N)c1ccc2cc(OC(=O)C=Cc3ccc(N)cc3)ccc2c1 [Compound 63, 6-amidino-2-naphthyl 4-aminocinnamate] ?
## Output 5.10

## Input Would you kindly share the measured pIC50 for N=C(N)c1ccc2cc(OC(=O)c3ccc([N+](=O)[O-])cc3)ccc2c1 [Compound 18, 6-amidino-2-naphthyl 4-nitrobenzoate] ?
## Output 5.52

## Input Would you kindly share the measured pIC50 for N#Cc1ccc(C(=O)Oc2ccc3cc(C(=N)N)ccc3c2)cc1 [Compound 19] ?
## Output 5.52

## Input Would you kindly share the measured pIC50 for N=C(N)c1ccc2cc(OC(=O)c3ccc(F)cc3)ccc2c1 [Compound 15] ?
## Output 6.00
